target: T1, Human CD33 full length, expressed on HEK293F cells (human, UniProt P20138 18-364); test: flow cytometry, HEK293F cells expressing human CD33
T1 construct: HEK293F cells transduced with lentivirus containing full length human CD33; also called huCD33
T1 sequence (P20138 18-364 limits assumed): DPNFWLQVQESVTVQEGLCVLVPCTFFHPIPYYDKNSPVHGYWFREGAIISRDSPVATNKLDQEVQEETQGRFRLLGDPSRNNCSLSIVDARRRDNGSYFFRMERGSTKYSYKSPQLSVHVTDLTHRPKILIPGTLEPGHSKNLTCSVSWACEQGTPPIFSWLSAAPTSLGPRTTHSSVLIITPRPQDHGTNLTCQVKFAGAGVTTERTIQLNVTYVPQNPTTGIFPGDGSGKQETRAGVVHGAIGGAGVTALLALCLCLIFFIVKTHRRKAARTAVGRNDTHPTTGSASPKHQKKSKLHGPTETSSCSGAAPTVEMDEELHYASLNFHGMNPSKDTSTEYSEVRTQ
Recorded MFI at 6 nM mAb by entry
Express it in MFI; write the number only.

C33B63 (antibody, IgG1, V domains shown, huIgG1 F405L; also called C33F68; C33H51/C33L34) VH: QLQLQESGPGLVKPSETLSLTCTVSGGSISTGRYYWGWIRQPPGKGVIWIGNIYYSGNTYYNPSLKSRVTISVDTSKNQFSLKLNSVTAADTAVYYCARLGSLVVVPAAMSFDYWGQGTLVTVSS VL: SYELTQPPSVSVSPGQTASITCSGDKLGDKYACWYQLRPGQSPILVIYQDSNRPSGIPERFSGSNSGNTATLTISGTQAMDEADYYCQAWDSSTWVFGGGTKLTVL ... 62200
C33B96 (antibody, IgG1, V domains shown, huIgG1 F405L; also called C33F101; C33H99/C33L37) VH: EVQLVESGGGLVQPGGSLRLSCAASGFTFSSYWMTWVRPAPGKGLEWVANIKRDGGEKYYVDSVKGRFTISRDNAANSLYLQMNSLRVEDTAVYYCARPFYDHFDYWGQGTLVTVSS VL: SYVLTQPPSVAVAPGQTARITCGGSNIGKISVHWYQQKAGQAPVLVVHDDRARPSGIPERLSGSNSGTTATLTISRVEVGDEADYYCQVWNSSSVHPVFGGGTKLTVL ... 476000

Challenge: Report MFI at 6 nM mAb for C33B54 (antibody, IgG1, V domains shown, huIgG1 F405L; also called C33F59; C33H44/C33L10) VH: QVQLQQSGPGLVKPSQTLSLTCAISGDSVSSNSAAWNWIRQSPSRGLEWLGRTYYRSKWYNDYAVSVRSRITINPDTSKNQFSLQLNSVTPEDTAVYHCARETMFRGLMDYWGQGTLVTVSS VL: SYVLTQPPSVSVAPGQTARITCGGSNIGSKSVHWYQQKPGQAPVMVVYDDSDRPSGIPERFSGSNSGNTATLTISRVEAGDEADYYCQVWDSSSDVVFGGGTKLTVL
Response given: 27500
